- experiment.description: Solubility of the compound in 10% DMSO
- Assay type: physicochemical
measurement.type: solubility

> print(dat)
                                   compound  measurement.type  value.reported
1  O=C(N[C@@H]1CO[C@H]2[C@@H]1OC[C@H]2OCc1ccccc1)/C(=C/c1ccc(Br)cc1)NC(=O)c1ccccc1 (stereo in doubt)        solubility       Insoluble
2  O=C(N[C@@H]1CO[C@H]2[C@@H]1OC[C@H]2OCc1ccccc1)/C(=C/c1ccccc1)NC(=O)c1ccccc1        solubility       Insoluble
3  O=C(N[C@@H]1CO[C@H]2[C@@H]1OC[C@H]2OCc1ccccc1)/C(=C/c1cc2ccccc2o1)NC(=O)c1ccccc1        solubility       Insoluble

---

- study.target: Kallikrein-5 (Homo sapiens, UniProt Q9Y337)
- Sequence (Q9Y337 whole entry): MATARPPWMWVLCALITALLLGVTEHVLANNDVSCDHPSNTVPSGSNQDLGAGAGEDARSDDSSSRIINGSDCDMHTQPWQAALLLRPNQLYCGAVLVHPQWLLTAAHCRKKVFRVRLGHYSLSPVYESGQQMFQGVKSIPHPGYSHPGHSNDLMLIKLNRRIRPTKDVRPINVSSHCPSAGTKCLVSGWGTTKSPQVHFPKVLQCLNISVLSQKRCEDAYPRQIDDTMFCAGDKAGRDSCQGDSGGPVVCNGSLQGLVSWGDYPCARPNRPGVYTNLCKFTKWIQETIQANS
- experiment.description: Inhibition of human recombinant KLK5 expressed in insect cell/baculovirus using Abz-KLYSSKQ-EDDnp as substrate by FRET analysis
measurement.type: IC50

# example entries with known answers
> print(dat)
                                   compound  value.reported
1  O=C(N[C@@H]1CO[C@H]2[C@@H]1OC[C@H]2OCc1ccccc1)/C(=C/c1ccc2c(c1)OCO2)NC(=O)c1ccccc1 (stereo in doubt)       > 1000 µM
2  O=C(N[C@@H]1CO[C@H]2[C@@H]1OC[C@H]2OCc1ccccc1)/C(=C/c1cccnc1)NC(=O)c1ccccc1 (stereo in doubt)          324 µM
3  O=C(N[C@@H]1CO[C@H]2[C@@H]1OC[C@H]2OCc1ccccc1)/C(=C/c1cccs1)NC(=O)c1ccccc1 (stereo in doubt)         99.2 µM
4  CC(=O)N/C(=C\c1cccs1)C(=O)N[C@@H]1CO[C@H]2[C@@H]1OC[C@H]2OCc1ccccc1 (stereo in doubt)          101 µM

Query compound follows.
[in] Endpoint output: IC50 of O=C(N[C@@H]1CO[C@H]2[C@@H]1OC[C@H]2OCc1ccccc1)/C(=C/c1ccco1)NC(=O)c1ccccc1 (stereo in doubt) . Value?
[out] 99.1 µM

---

Record form. Attribute: Ki. Fill in for each entry.
- study.target: Kallikrein-7 (Homo sapiens, UniProt P49862)
- Sequence (P49862 whole entry): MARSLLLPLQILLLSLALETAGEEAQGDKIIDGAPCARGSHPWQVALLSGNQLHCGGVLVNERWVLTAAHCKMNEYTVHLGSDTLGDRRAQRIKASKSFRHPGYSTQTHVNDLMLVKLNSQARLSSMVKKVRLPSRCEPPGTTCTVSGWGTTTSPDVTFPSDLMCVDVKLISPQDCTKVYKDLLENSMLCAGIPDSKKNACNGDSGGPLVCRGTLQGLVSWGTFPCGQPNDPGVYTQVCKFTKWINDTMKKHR
- experiment.description: Competitive inhibition of recombinant human KLK7 expressed in insect cell/baculovirus using Abz-KLYSSKQ-EDDnp as substrate by Dixon plot analysis
Field note: include the unit after the figure.

> print(dat)
                                   compound  value.reported
1  O=C(N[C@@H]1CO[C@H]2[C@@H]1OC[C@H]2OCc1ccccc1)/C(=C/c1ccc2c(c1)OCO2)NC(=O)c1ccccc1 (stereo in doubt)         80.3 µM
2  O=C(N[C@@H]1CO[C@H]2[C@@H]1OC[C@H]2OCc1ccccc1)/C(=C/c1ccco1)NC(=O)c1ccccc1 (stereo in doubt)            3 µM
3  O=C(N[C@@H]1CO[C@H]2[C@@H]1OC[C@H]2OCc1ccccc1)/C(=C/c1cccs1)NC(=O)c1ccccc1 (stereo in doubt)          1.8 µM

Provide Ki for all items below, preserving their order.
1. O=C(N[C@@H]1CO[C@H]2[C@@H]1OC[C@H]2OCc1ccccc1)/C(=C/c1cccnc1)NC(=O)c1ccccc1 (stereo in doubt)
2. CC(=O)N/C(=C\c1cccs1)C(=O)N[C@@H]1CO[C@H]2[C@@H]1OC[C@H]2OCc1ccccc1 (stereo in doubt)

[out]
1: 75.1 µM; 2: 77.4 µM
